Tested on: HCT-116
method.notes: Antiproliferative activity against human HCT-116 cells assessed as reduction in cell viability incubated for 48 hrs by MTT assay
Format: functional, cell-based
recorded.conditions: HCT-116, 48 h
property.name: IC50 (nM)

Below: 2 compounds and their reported IC50.
>>> readout_value("COc1ccc([C@@H]2N=C2c2cc(OC)c(OC)c(OC)c2)cc1F")
660
>>> readout_value("COc1ccc(C2N=C2c2cc(OC)c(OC)c(OC)c2)cc1OC (stereo not drawn)")
8720

I = COc1ccc(C2N=C2c2cc(OC)c(OC)c(OC)c2)cc1F (stereo not drawn)
II = CCOc1ccc(C2N=C2c2cc(OC)c(OC)c(OC)c2)cc1 (stereo not drawn)
III = COc1cc(C2=NC2c2ccccc2)cc(OC)c1OC (stereo not drawn)
Thanks in advance: please rank these 3 entries by IC50, highest to lowest. Your answer should be the labels, listed in the requested order.
III, II, I

a = COc1cc(C2=NC2c2ccc(SC)cc2)cc(OC)c1OC (stereo not drawn)
b = COc1ccc(C2=NC2c2cc(OC)c(OC)c(OC)c2)cc1C (stereo not drawn)
Decide: a or b , by lowest recorded IC50. Choose, then provide that item's label.
a
(a: 1510 nM, b: 3590 nM)
